assay: method code SF, from DOI: 10.1021/jm00217a007, PMID: 17751
experimental setup: pH 9.0
observed property: logD

# query: logD of entry CNC(=S)NCCCCc1c[nH]cn1
0.51

###

assay: method code SF-AS, from DOI: 10.1093/chemse/13.4.619
experimental setup: pH 7.2
Could you please mark 1.0 for values of logD below 0.7 and 0.0 for values at or above it?

Completed entries (count: 2):
1) COC(=O)c1ccccn1    1.0
2) c1ccc(-c2ccncc2)nc1    0.0

Answer whether the compound c1ccc(-c2cccnc2)nc1 has logD strictly less than 0.7
0.0

###

assay: method code SF-HPLC, from DOI: 10.1021/jf0483669, PMID: 15913295
experimental setup: pH 7.4
observed property: logD
Answers are plain numbers.

1. O=c1c(-c2ccc(O)cc2)coc2cc(O[C@@H]3O[C@H](CO)[C@@H](O)[C@H](O)[C@H]3O)ccc12    0.32

Next up:
# lookup: logD of Oc1ccc([C@H]2COc3cc(O)ccc3C2)cc1
3.2
